# systemUnderTest: T1, formyl peptide receptor 2 (FPR2) (UniProt P25090 1-351, limits assumed)
# T1 sequence (looked up): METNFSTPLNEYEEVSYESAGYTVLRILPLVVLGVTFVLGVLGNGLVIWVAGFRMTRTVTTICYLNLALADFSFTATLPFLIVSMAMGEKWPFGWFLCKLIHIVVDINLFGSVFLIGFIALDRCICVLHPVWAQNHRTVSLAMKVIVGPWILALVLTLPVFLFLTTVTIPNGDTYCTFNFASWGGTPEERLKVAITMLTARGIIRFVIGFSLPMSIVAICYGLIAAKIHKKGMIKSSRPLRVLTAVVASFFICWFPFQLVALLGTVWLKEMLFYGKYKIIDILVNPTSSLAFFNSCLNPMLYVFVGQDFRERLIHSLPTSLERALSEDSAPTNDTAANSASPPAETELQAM
# experimentalProtocol: cell-based or functional assay
readoutType: EC50 for [Ca2+]

Known results for binders:
binder	valueMeasured
MRYWPM (HELM PEPTIDE1{[ac].M.R.Y.W.P.[dM].[am]}$$$$V2.0; SMILES CSCC[C@H](NC(C)=O)C(=O)N[C@@H](CCCNC(=N)N)C(=O)N[C@@H](Cc1ccc(O)cc1)C(=O)N[C@@H](Cc1c[nH]c2ccccc12)C(=O)N1CCC[C@H]1C(=O)N[C@H](CCSC)C(N)=O) [peptide of SEQ ID NO 111]	< 10 nM
WRYKVM (HELM PEPTIDE1{W.R.Y.K.V.[dM].[am]}$$$$V2.0; N-terminus assumed; SMILES CSCC[C@@H](NC(=O)[C@@H](NC(=O)[C@H](CCCCN)NC(=O)[C@H](Cc1ccc(O)cc1)NC(=O)[C@H](CCCNC(=N)N)NC(=O)[C@@H](N)Cc1c[nH]c2ccccc12)C(C)C)C(N)=O) [peptide of SEQ ID NO 3]	< 10 nM

Next binder, EC50 for [Ca2+] to be filled in.
EC50 for [Ca2+] reported for this binder RMRYKVM (HELM PEPTIDE1{[CCCC(=O)[*:2]].R.M.R.Y.K.V.[dM].[am]}$$$$V2.0; SMILES CCCC(=O)N[C@@H](CCCNC(=N)N)C(=O)N[C@@H](CCSC)C(=O)N[C@@H](CCCNC(=N)N)C(=O)N[C@@H](Cc1ccc(O)cc1)C(=O)N[C@@H](CCCCN)C(=O)N[C@H](C(=O)N[C@H](CCSC)C(N)=O)C(C)C) [peptide of SEQ ID NO 7] : < 10 nM
